Data credit: ChEMBL document CHEMBL1129899

SYSTEM TESTED: Vitamin D3 receptor (Homo sapiens)
EXPERIMENT SUMMARY: Relative affinity compared to Calcitriol in displacement of [3H]1H]1-alpha,25(OH)2D3 from vitamin D3 receptor in […] cells
Assay type: cell-based
METRIC NAME: Activity (%)

• C=C1/C(=C/C=C/[C@@H]2CC[C@H]([C@H](C)CC#CC(C)(C)O)C2(C)C)C[C@@H](O)C[C@@H]1O = 200
• C=C1/C(=C/C=C/[C@@H]2CC[C@H]([C@@H](C)CC#CC(C)(C)O)C2(C)C)C[C@@H](O)C[C@@H]1O = 150
• C=C1/C(=C/C=C/[C@@H]2CC[C@H]([C@H](C)CCCC(C)(C)O)[C@@]2(C)CCC)C[C@@H](O)C[C@@H]1O = 1
• C=C1/C(=C/C=C/[C@@H]2CC[C@H]([C@H](C)CCCC(C)(C)O)C2(C)C)C[C@@H](O)C[C@@H]1O = 85
• C=C1/C(=C/C=C/[C@@H]2CC[C@H]([C@@H](C)CCCC(C)(C)O)C2(C)C)C[C@@H](O)C[C@@H]1O = 85

###

System: keratinocytes (Homo sapiens)
EXPERIMENT SUMMARY: Antiproliferative activity relative to Calcitriol in Keratinocyte cell lines
METRIC NAME: Activity (%)

• C=C1/C(=C/C=C/[C@@H]2CC[C@H]([C@H](C)CCCC(C)(C)O)[C@@]2(C)CCC)C[C@@H](O)C[C@@H]1O = 85
• C=C1/C(=C/C=C/[C@@H]2CC[C@H]([C@@H](C)CC#CC(C)(C)O)C2(C)C)C[C@@H](O)C[C@@H]1O = 200
• C=C1/C(=C/C=C/[C@@H]2CC[C@H]([C@H](C)CCCC(C)(C)O)C2(C)C)C[C@@H](O)C[C@@H]1O = 90
• C=C1/C(=C/C=C/[C@@H]2CC[C@H]([C@@H](C)CCCC(C)(C)O)C2(C)C)C[C@@H](O)C[C@@H]1O = 100

###

Recorded Activity by entry
SYSTEM TESTED: Vitamin D3 receptor (Sus scrofa)
EXPERIMENT SUMMARY: Affinity for pig intestinal mucosa Vitamin D3 receptor (VDR)
Format: tissue-based
METRIC NAME: Activity

• C=C1/C(=C/C=C/[C@@H]2CC[C@H]([C@H](C)CC#CC(C)(C)O)C2(C)C)C[C@@H](O)C[C@@H]1O = 40
• C=C1/C(=C/C=C/[C@@H]2CC[C@H]([C@H](C)CCCC(C)(C)O)C2(C)C)C[C@@H](O)C[C@@H]1O = 80
• C=C1/C(=C/C=C/[C@@H]2CC[C@H]([C@@H](C)CC#CC(C)(C)O)C2(C)C)C[C@@H](O)C[C@@H]1O = 40
• C=C1/C(=C/C=C/[C@@H]2CC[C@H]([C@@H](C)CCCC(C)(C)O)C2(C)C)C[C@@H](O)C[C@@H]1O = 70
• C=C1/C(=C/C=C/[C@@H]2CC[C@H]([C@H](C)CCCC(C)(C)O)[C@@]2(C)CCC)C[C@@H](O)C[C@@H]1O = 80

###

SYSTEM TESTED: UniProt P11473
Sequence (whole entry): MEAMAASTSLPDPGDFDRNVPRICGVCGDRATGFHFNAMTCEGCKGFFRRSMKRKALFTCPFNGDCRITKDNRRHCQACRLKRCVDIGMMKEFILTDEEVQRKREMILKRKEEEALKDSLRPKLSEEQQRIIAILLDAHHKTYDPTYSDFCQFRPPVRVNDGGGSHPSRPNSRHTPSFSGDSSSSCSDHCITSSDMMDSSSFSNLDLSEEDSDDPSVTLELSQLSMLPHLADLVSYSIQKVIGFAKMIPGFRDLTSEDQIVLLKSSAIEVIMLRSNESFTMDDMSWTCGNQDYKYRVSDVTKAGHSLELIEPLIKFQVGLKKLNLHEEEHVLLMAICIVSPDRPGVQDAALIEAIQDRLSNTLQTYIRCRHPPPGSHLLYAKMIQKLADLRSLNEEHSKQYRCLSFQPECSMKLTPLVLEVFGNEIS
EXPERIMENT SUMMARY: Relative affinity compared to Calcitriol in displacement of [3H]1H]1-alpha,25(OH)2D3 from vitamin D receptor (VDR) in MG-63 cells
Type: functional, cell-based
METRIC NAME: Activity (%)

• C=C1/C(=C/C=C/[C@@H]2CC[C@H]([C@H](C)CCCC(C)(C)O)[C@@]2(C)CCC)C[C@@H](O)C[C@@H]1O = 8
• C=C1/C(=C/C=C/[C@@H]2CC[C@H]([C@H](C)CCCC(C)(C)O)C2(C)C)C[C@@H](O)C[C@@H]1O = 30
• C=C1/C(=C/C=C/[C@@H]2CC[C@H]([C@@H](C)CC#CC(C)(C)O)C2(C)C)C[C@@H](O)C[C@@H]1O = 10
• C=C1/C(=C/C=C/[C@@H]2CC[C@H]([C@@H](C)CCCC(C)(C)O)C2(C)C)C[C@@H](O)C[C@@H]1O = 10
